Test system: MCF‐7 spheroids
Test: Spheroid phototoxicity, 470 nm LED, CellTiter-Glo 3D
Assay type: cell-based
Details: Homo sapiens, MCF7, light or radiation study; MCF‐7 3D (spheroids); 470 nm LED, 5±0.54 J/cm^2 (2.2 mW/cm^2 for 0.5 h)
Provide the recorded IC50 for the entries that follow.
One number for each entry, in µM.

Sample records with IC50:
>  <structure-smiles>
CC1=C(c2ccc3c4cccc5cccc(c6cccc2c63)c54)C(C)=[N+]2C1=C(c1c(C)cc(C)cc1C)c1c(C)c(I)c(C)n1[B-]2(F)F

>  <unit-symbol>
µM

>  <IC50>
5.62

$$$$
>  <structure-smiles>
CC1=C(c2ccc3c4cccc5cccc(c6cccc2c63)c54)C(C)=[N+]2C1=C(c1c(C)cc(C)cc1C)c1c(C)cc(C)n1[B-]2(F)F

>  <unit-symbol>
µM

>  <IC50>
6.26

$$$$
>  <structure-smiles>
CC1=CC(C)=[N+]2C1=C(c1ccccc1)c1c(C)c(-c3ccc4c5cccc6cccc(c7cccc3c74)c65)c(C)n1[B-]2(F)F

>  <unit-symbol>
µM

>  <IC50>
6.91

$$$$

**Query** Requested field: IC50. Item: CC1=C(I)C(C)=[N+]2C1=C(c1ccccc1)c1c(C)c(-c3ccc4c5cccc6cccc(c7cccc3c74)c65)c(C)n1[B-]2(F)F
**Result** 7.65
